target: RSV postfusion F (postF), F ΔFP (Respiratory Syncytial Virus, UniProt P03420 26-513); assay: BLI, IgG on anti-human IgG sensor
Quantity measured: binding result

INSERT INTO results (binder, quantity_measured, measurement) VALUES
  ('ADI-41457 (antibody, V domains shown, also called Ab 741; Antibody Number 741) VH: EVQLVESGGGLVRPGGSLRVSCAASGFTFIRYDMHWVRQAPGKGLEWVSGIGTAGDTYYAASVQGRFTISRENAKNSLYLQMSNLRPGDTAVYYCAGSMAATGIDQWGQGTLVTVSS VL: EIVMTQSPLTLPVTPGEPASISCRSSQSLLHSNGFTYLDWFLQKPGQSPQLLIFLGSNRASGVPDRFSGSGSGTDFTLKISRVEAEDVGIYYCMQALQTPYTFGQGTKVEIK', 'binding result', 'no binding'),
  ('ADI-41489 (antibody, V domains shown, also called Ab 770; Antibody Number 770) VH: EVQLVESGGGVVQPGRSLRLSCAASGFNFHNYAFHWVRQAPGKGLDWVAVTSYDGSSAFYADSVKGRFTISRDNSKKILYLQMTSLRAEDTALYYCARGSSSWSGDYFDYWGQGILVTVSS VL: DIVMTQSPVTLSVSPGERATLSCRASQSVGSNLAWYQQKHGQTPRLLIYDASTRATSIPARFSGSGSGTEFTLTISSLQSEDFAVYYCQQYNKWPSYTFGQGTKVEIK', 'binding result', 'no binding');

Value source: patent US20260258115A1
